Where these numbers come from: patent US20110177071A1

Biological target: T1, full-length human CD86 on HEK293 cells (human, UniProt P42081 24-329)
T1 sequence: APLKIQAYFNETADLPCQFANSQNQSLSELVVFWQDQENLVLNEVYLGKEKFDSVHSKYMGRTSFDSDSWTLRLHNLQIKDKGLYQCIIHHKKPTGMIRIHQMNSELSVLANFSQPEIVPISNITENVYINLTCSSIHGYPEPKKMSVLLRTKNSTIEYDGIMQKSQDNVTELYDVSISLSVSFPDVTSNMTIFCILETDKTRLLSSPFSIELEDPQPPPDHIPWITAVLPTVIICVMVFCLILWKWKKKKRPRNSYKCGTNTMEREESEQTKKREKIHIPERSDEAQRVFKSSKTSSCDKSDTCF
Experiment: cell-based or functional assay
measurement-type: Mean IC50 (nM), CD4+ T cell proliferation
Report as a plain number; the unit nM is understood.

// known answers, use as guide
{"binder": "D3-65-IgG2 (Fc fusion) MHVAQPAVVLASSRGIASFVCEYASPGKANEVRVTVLRQADSQVTEVCAMTYMKGNELTFLDDPSCTGTFSGNQVNLTIQGLRAMDTGLYICKVELMYPPPYYEGIGNGTQIYVIDPEPCPDSDERKCCVECPPCPAPPVAGPSVFLFPPKPKDTLMISRTPEVTCVVVDVSHEDPEVQFNWYVDGVEVHNAKTKPREEQFNSTFRVVSVLTVVHQDWLNGKEYKCKVSNKGLPAPIEKTISKTKGQPREPQVYTLPPSREEMTKNQVSLTCLVKGFYPSDIAVEWESNGQPENNYKTTPPMLDSDGSFFLYSKLTVDKSRWQQGNVFSCSVMHEALHNHYTQKSLSLSPG", "unit-descriptor": "nM", "reported": 0.06}
{"binder": "D3-31-IgG2 (Fc fusion) MHVAQPAVVLASSRGIASFVCEYESPGKANEIRVTVLRQADSQVTEVCAMTYMKEDELTFLDDPSCTGTFSGNQVNLTIQGLRAADTGLYICKVELMYPPPYYLGIGNGTQIYVIDPEPCPDSDERKCCVECPPCPAPPVAGPSVFLFPPKPKDTLMISRTPEVTCVVVDVSHEDPEVQFNWYVDGVEVHNAKTKPREEQFNSTFRVVSVLTVVHQDWLNGKEYKCKVSNKGLPAPIEKTISKTKGQPREPQVYTLPPSREEMTKNQVSLTCLVKGFYPSDIAVEWESNGQPENNYKTTPPMLDSDGSFFLYSKLTVDKSRWQQGNVFSCSVMHEALHNHYTQKSLSLSPG", "unit-descriptor": "nM", "reported": 0.03}
{"binder": "D3-3-IgG2 (Fc fusion, also called D3-03-IgG2) MHVAQPAVVLASSRGIASFVCEYESPGKANEVRVTVLRQAGSQVTEVCAMTYMKGDELTFLDDPSCTGTFSGNQVNLTIQGLRAADTGLYICKVELMYPPPYYLGFGNGTQIYVIDPEPCPDSDERKCCVECPPCPAPPVAGPSVFLFPPKPKDTLMISRTPEVTCVVVDVSHEDPEVQFNWYVDGVEVHNAKTKPREEQFNSTFRVVSVLTVVHQDWLNGKEYKCKVSNKGLPAPIEKTISKTKGQPREPQVYTLPPSREEMTKNQVSLTCLVKGFYPSDIAVEWESNGQPENNYKTTPPMLDSDGSFFLYSKLTVDKSRWQQGNVFSCSVMHEALHNHYTQKSLSLSPG", "unit-descriptor": "nM", "reported": 0.04}
{"binder": "D3-53-IgG2 (Fc fusion) MHVAQPAVVLASSRGIASFVCEYESPGKANEIRVTVLRQAGSQVTEVCAMTYMKGDELTFLDDPSCTGTFSGNQVNLTIQGLRAADTGLYICKVELMYPPPYYEGIGNGTQIYVIDPEPCPDSDERKCCVECPPCPAPPVAGPSVFLFPPKPKDTLMISRTPEVTCVVVDVSHEDPEVQFNWYVDGVEVHNAKTKPREEQFNSTFRVVSVLTVVHQDWLNGKEYKCKVSNKGLPAPIEKTISKTKGQPREPQVYTLPPSREEMTKNQVSLTCLVKGFYPSDIAVEWESNGQPENNYKTTPPMLDSDGSFFLYSKLTVDKSRWQQGNVFSCSVMHEALHNHYTQKSLSLSPG", "unit-descriptor": "nM", "reported": 0.02}
{"binder": "D3-54-IgG2 (Fc fusion) MHVAQPAVVLASSRGIASFVCEYASPGKANEVRVTVLRQADSQVTEVCAMTYMKENELTFLDDPICTGTFSGNQVNLTIQGLRAMDTGLYICKVELMYPPPYYLGIGNGTQIYVIDPEPCPDSDERKCCVECPPCPAPPVAGPSVFLFPPKPKDTLMISRTPEVTCVVVDVSHEDPEVQFNWYVDGVEVHNAKTKPREEQFNSTFRVVSVLTVVHQDWLNGKEYKCKVSNKGLPAPIEKTISKTKGQPREPQVYTLPPSREEMTKNQVSLTCLVKGFYPSDIAVEWESNGQPENNYKTTPPMLDSDGSFFLYSKLTVDKSRWQQGNVFSCSVMHEALHNHYTQKSLSLSPG", "unit-descriptor": "nM", "reported": 0.04}
{"binder": "D3-20-IgG2 (Fc fusion) MHVAQPAVVLASSRGIASFVCEYESPGKANEIRVTVLRQADSQVTEVCAMTYMKGNELTFLDDPSCTGTFSGNQVNLTIQGLRAMDTGLYICKVELMYPPPYYLGIGNGTQIYVIDPEPCPDSDERKCCVECPPCPAPPVAGPSVFLFPPKPKDTLMISRTPEVTCVVVDVSHEDPEVQFNWYVDGVEVHNAKTKPREEQFNSTFRVVSVLTVVHQDWLNGKEYKCKVSNKGLPAPIEKTISKTKGQPREPQVYTLPPSREEMTKNQVSLTCLVKGFYPSDIAVEWESNGQPENNYKTTPPMLDSDGSFFLYSKLTVDKSRWQQGNVFSCSVMHEALHNHYTQKSLSLSPG", "unit-descriptor": "nM", "reported": 0.04}

The reported value for D3-12-IgG2 (Fc fusion) MHVAQPAVVLASSRGIASFVCEYESPGKANEIRVTVLRQAGSQVTEVCAMTYMKGDELTFLDDPSCTGTFSGNQVNLTIQGLRAADTGLYICKVELMYPPPYYLGIGNGTQIYVIDPEPCPDSDERKCCVECPPCPAPPVAGPSVFLFPPKPKDTLMISRTPEVTCVVVDVSHEDPEVQFNWYVDGVEVHNAKTKPREEQFNSTFRVVSVLTVVHQDWLNGKEYKCKVSNKGLPAPIEKTISKTKGQPREPQVYTLPPSREEMTKNQVSLTCLVKGFYPSDIAVEWESNGQPENNYKTTPPMLDSDGSFFLYSKLTVDKSRWQQGNVFSCSVMHEALHNHYTQKSLSLSPG in terms of Mean IC50 (nM), CD4+ T cell proliferation is 0.04
